Data origin: ChEMBL document CHEMBL5380849

SUBJECT OF TEST: Gamma-aminobutyric acid receptor subunit alpha-3 (Homo sapiens)
Sequence (P34903 whole entry): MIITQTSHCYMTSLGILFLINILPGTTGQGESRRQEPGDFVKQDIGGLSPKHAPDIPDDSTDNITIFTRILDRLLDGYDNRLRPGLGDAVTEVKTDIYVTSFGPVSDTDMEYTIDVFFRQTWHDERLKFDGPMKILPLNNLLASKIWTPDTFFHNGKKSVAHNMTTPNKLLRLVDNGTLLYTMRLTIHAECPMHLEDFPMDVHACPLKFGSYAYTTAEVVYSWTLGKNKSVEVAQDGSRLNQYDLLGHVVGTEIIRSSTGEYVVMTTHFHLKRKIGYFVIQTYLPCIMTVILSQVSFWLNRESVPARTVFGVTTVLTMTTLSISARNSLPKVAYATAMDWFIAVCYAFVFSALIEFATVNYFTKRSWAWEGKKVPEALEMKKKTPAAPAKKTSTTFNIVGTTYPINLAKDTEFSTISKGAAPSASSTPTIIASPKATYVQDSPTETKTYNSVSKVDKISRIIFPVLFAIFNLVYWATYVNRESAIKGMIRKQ
ASSAY METHOD TEXT: Positive allosteric modulation of GABAA alpha3 receptor (unknown origin) assessed as inhibition constant
READOUT: Ki (nM)
Reply with just the number (in nM).

Kindly state the measured Ki obtained for C#Cc1ccc2c(c1)C(c1ccccn1)=NCc1c(-c3cnco3)ncn1-2 with Gamma-aminobutyric acid receptor subunit alpha-3 (Homo sapiens).
205
